Just for reference, patent US8569339B2 is where these values come from.

- TEST_PROTOCOL: Assessment of solubility (HT solubility, pION, UV)
- Format: physicochemical
- COND: pH 4.5 buffer (pION system solution), pH 4.5, aqueous buffer, kinetic from dmso stock, pH 4.5 buffer, incubated 16-19 hours, 1.0% DMSO, 100 uM; read-out: Sol pH 4.5
- Description: Solubility is measured by the following method. DMSO stock samples at 10 mM conc are prepared. […] The samples are pierced and 100 ul of thawed samples are transferred into the PCR plate for analysis. […] 75 ul of buffer (pH 7.4 or pH 4.5) is added to UV plate followed by addition of […] of N-propanol. The solution is mixed and the blank spectrum is read using spectrophotometer. […] The spectra collected for blank, reference and sample from 250-498 nm is analyzed using pION software. […]
PARAMETER: solubility kinetic

Solved cases below.
>>> value_measured("Cc1ccc(OCc2ccc3c(c2C)CCN(C2CCOC2)C3)c(-c2cccc(-c3ncc(C(=O)O)n3C)n2)c1 (stereo not drawn)")
"> 76 µg/mL"
>>> value_measured("Cc1ccc(OCc2ccc3c(c2C)CCN(CC2CCOC2)C3)c(-c2cccc(-c3csc(C(=O)O)c3C)n2)c1 (stereo not drawn)")
"> 79 µg/mL"

Continue with the next molecule.
Short answer for Cc1ccc(OCc2ccc3c(c2)CCN(CC2CCCOC2)C3)c(-c2cccc(-n3ncc(C(=O)O)c3C(F)(F)F)n2)c1 (stereo not drawn) : solubility kinetic was > 60 µg/mL

----------
# reported solubility kinetic; entries follow
- TEST_PROTOCOL: Assessment of solubility (HT solubility, pION, UV)
- Format: physicochemical
- COND: pH 4.5 buffer (pION system solution), pH 4.5, aqueous buffer, kinetic from dmso stock, pH 4.5 buffer, incubated 16-19 hours, 1.0% DMSO, 100 uM; read-out: Sol pH 4.5

>>> value_measured("Cc1ccc(OCc2ccc3c(c2)CCN(S(=O)(=O)CCCC(=O)O)C3)c(-c2cccc(-n3ncc(C(=O)O)c3C(F)(F)F)n2)c1")
"0.8 µg/mL"
>>> value_measured("Cc1cccc(-c2cccc(-c3ncc(C(=O)O)n3C)n2)c1OCc1ccc2c(c1)CCN(CC1CCCOC1)C2 (stereo not drawn)")
"> 67 µg/mL"
>>> value_measured("Cc1ccc(OCc2ccc3c(c2)CCN(C2CCCOC2)C3)c(-c2cccc(-n3ncc(C(=O)O)c3C(F)(F)F)n2)c1 (stereo not drawn)")
"> 59 µg/mL"

Short answer for Cn1c(C(=O)O)cnc1-c1cccc(-c2cccc(C(F)(F)F)c2OCc2ccc3c(c2)CCN(C2CCOCC2)C3)n1 : solubility kinetic was > 110 µg/mL

Short answer for Cc1ccc(OCc2ccc3c(c2)CCN(C2CCOCC2)C3)c(-c2cccc(-n3cnc(C(=O)O)c3C)n2)c1 : solubility kinetic was > 78 µg/mL

Short answer for Cc1ccc(OCc2ccc3c(c2)CCN(S(=O)(=O)CC(=O)O)C3)c(-c2cccc(-n3ncc(C(=O)O)c3C(F)(F)F)n2)c1 : solubility kinetic was > 62 µg/mL

Short answer for Cc1ccc(OCc2ccc3c(c2C)CCN(C2CCOCC2)C3)c(-c2cccc(-c3c(C)c(C(=O)O)nn3C)n2)c1 : solubility kinetic was > 81 µg/mL

Short answer for Cc1ccc(OCc2ccc3c(c2)CCN(C2CCCCC2)C3)c(-c2cccc(-n3ncc(C(=O)O)c3C(F)(F)F)n2)c1 : solubility kinetic was > 58 µg/mL

Short answer for Cc1cccc(-c2cccc(-n3cnc(C(=O)O)c3C)n2)c1OCc1ccc2c(c1)CCN(C1CCOCC1)C2 : solubility kinetic was > 78 µg/mL
